# test name: in vivo
# measurement context: sheep, iv, 0.015 mg/kg, morphine-6-glucuronide concentration (plasma)
value kind: concentration at 0.25 h (ng/mL)
Lab book: enter the figure in ng/mL, no units written.

Qu. For CN1CC[C@]23c4c5ccc(O)c4O[C@H]2[C@@H](O[C@@H]2O[C@H](C(=O)O)[C@@H](O)[C@H](O)[C@H]2O)C=C[C@H]3[C@H]1C5 [morphine-6-glucuronide] , what is its reported concentration at 0.25 h?
Ans. 28.6

* * *

# test name: Pharmacokinetic parameters after intravenous administration to sheep
# measurement context: sheep, plasma, iv, 0.015 mg/kg, Area Under Curve, i.v. 0.015 mg/kg; 0-300 min; individual sheep NF, OF, PF
value kind: AUC at 5 h (ng·h/mL)
Lab book: enter the figure in ng·h/mL, no units written.

Qu. For CN1CC[C@]23c4c5ccc(O)c4O[C@H]2[C@@H](O[C@@H]2O[C@H](C(=O)O)[C@@H](O)[C@H](O)[C@H]2O)C=C[C@H]3[C@H]1C5 [morphine-6-glucuronide] , what is its reported AUC at 5 h?
Ans. 36.1

* * *

# test name: Pharmacokinetic parameters after nasal administration to sheep
# measurement context: sheep, plasma, 0.15 mg/kg, Area Under Curve, nasal 0.15 mg/kg with 0.5% chitosan; 0-300 min; individual sheep IF, JF, KF
value kind: AUC at 5 h (ng·h/mL)
Lab book: enter the figure in ng·h/mL, no units written.

Qu. For CN1CC[C@]23c4c5ccc(O)c4O[C@H]2[C@@H](O[C@@H]2O[C@H](C(=O)O)[C@@H](O)[C@H](O)[C@H]2O)C=C[C@H]3[C@H]1C5 [morphine-6-glucuronide] , what is its reported AUC at 5 h?
Ans. 156

* * *

# test name: Pharmacokinetic parameters after intravenous administration to sheep
# measurement context: sheep, plasma, iv, 0.015 mg/kg, T1/2, i.v. 0.015 mg/kg; individual sheep NF, OF, PF
value kind: half-life (min)
Lab book: enter the figure in min, no units written.

Qu. For CN1CC[C@]23c4c5ccc(O)c4O[C@H]2[C@@H](O[C@@H]2O[C@H](C(=O)O)[C@@H](O)[C@H](O)[C@H]2O)C=C[C@H]3[C@H]1C5 [morphine-6-glucuronide] , what is its reported half-life?
Ans. 58

* * *

# test name: Pharmacokinetic parameters after intravenous administration to sheep
# measurement context: sheep, plasma, iv, 0.015 mg/kg, T1/2, i.v. 0.015 mg/kg; mean of 3 sheep
value kind: half-life
Value and unit, in that order.

Qu. For CN1CC[C@]23c4c5ccc(O)c4O[C@H]2[C@@H](O[C@@H]2O[C@H](C(=O)O)[C@@H](O)[C@H](O)[C@H]2O)C=C[C@H]3[C@H]1C5 [morphine-6-glucuronide] , what is its reported half-life?
Ans. 51 min

* * *

# test name: in vivo
# measurement context: sheep, iv, 0.015 mg/kg, morphine-6-glucuronide concentration (plasma)
value kind: concentration at 10 min (ng/mL)
Lab book: enter the figure in ng/mL, no units written.

Qu. For CN1CC[C@]23c4c5ccc(O)c4O[C@H]2[C@@H](O[C@@H]2O[C@H](C(=O)O)[C@@H](O)[C@H](O)[C@H]2O)C=C[C@H]3[C@H]1C5 [morphine-6-glucuronide] , what is its reported concentration at 10 min?
Ans. 36.1
